Listing: composite z-score of selected compounds
Tested on: Inhibin beta A chain (activin A)
TEST: INHBA (activin A) binders on microarrays, primary screen, biochemical, small-molecule microarray, 635 nm fluorescence scan (AID 1107);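 note: mouse activin A protein probed at 4.33 µg/mL on printed slides; score merges bound-protein fluorescence near 667 nm with spot signal-to-noise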
SETTINGS: small-molecule microarray binding, higher = more signal

COMPOUND	TARGET OR SYSTEM	composite z-score
CC(CCN1CCCc2nc(C)c(C)cc21)=NO[C@@H](C)c1cn([C@H](CO)Cc2ccccc2)nn1	Inhibin beta A chain (activin A)	1.19
Cc1cc2c(nc1C)CCCCN2CC(O)CN1CCCc2nc(-c3ccc(Br)cc3)ccc21 (configuration not stated)	Inhibin beta A chain (activin A)	0.481
O=C1C[C@@H](O)[C@@H](O)[C@@H]2[C@@H]3C(=O)N(Cc4ccccc4)C(=O)[C@@H]3CC[C@H]12	Inhibin beta A chain (activin A)	0.3
C#CCCCON=C1[C@H]2CCn3c(=O)n([C@@H](CC)c4ccccc4)c(=O)n3[C@H]2[C@H](O)[C@@H]2O[C@H]12	Inhibin beta A chain (activin A)	0.228
CO[C@H]1C[C@@H]2C[C@H](O)CC(CC(=O)O[C@@H](C=CCC(C)C)C[C@@H]3CC[C@H](C)[C@@H](C1)O3)O2	Inhibin beta A chain (activin A)	0.0531
CCOC(=O)[C@H](Cc1ccccc1)NC(=O)CCC1CC(OC(=O)NCCc2ccc(F)cc2)CC2(CCCC(COC(=O)NCc3cccc(C(F)(F)F)c3)O2)O1 (some centres not stated)	Inhibin beta A chain (activin A)	-0.335
O=C1[C@H]2[C@H]3[C@H](O)[C@H](O)CC(=NOCc4ccccc4)[C@H]3CC[C@H]2C(=O)N1C1CCCCC1	Inhibin beta A chain (activin A)	-0.0077

###

Listing: z-score of selected compounds
TARGET OR SYSTEM: NADPH oxidase 2 (Homo sapiens)
TEST: NOX2-dependent H2O2 signal modulators, primary screen, NOX inhibitor project, cell-based, HEK293-NOX2, PMA-stimulated, Amplex Red fluorescence (AID 1159); note: test concentration not given here
SETTINGS: 45 min, higher = more signal, called active from +8 up or from −8 down

COMPOUND	z-score
CCOC(=O)NN=C1C[C@@H](O)[C@@H](O)[C@@H]2[C@@H]3C(=O)N(CC)C(=O)[C@@H]3CC[C@H]12	-1.28
CCO[C@H](c1cc(OC)cc([N+](=O)[O-])c1OC)[C@H](C)[C@@H](OC)[C@H](C)C=CCC(=O)OC	-1.73
O=C1C2=CC[C@H]3C(=O)N(Cc4ccccc4)C(=O)[C@H]3[C@H]2[C@H](O)[C@@H]2O[C@H]12	-1.41
COC(=O)[C@H](C)NC(=O)CCC1CC(OC(=O)NCc2ccc3c(c2)OCO3)CC2(CCCC(COC(=O)NCCC(C)C)O2)O1 (stereo partly drawn)	0.738
CCc1cc2c(nc1CC)CCN(CCC(C)=NOC[C@@H](C)[C@H](OCc1ccccc1)C(C)C)C2	-2.3
CC(C)C(=O)N[C@H]1CCCN1C(=O)C=Cc1ccccc1	0.679
C[C@@H]1CC[C@@H](C(=O)O)N[C@H]1c1cccc(N2CCOCC2)c1	-0.438
C[C@@H]1CC[C@H]2C(=O)O[C@@H](CN=[N+]=[N-])CN2[C@H]1c1ccc(Br)cc1	-3.99

###

TEST: CREB reporter modulators under forskolin, primary screen, cell-based, PC12, CRE-LacZ reporter, forskolin-stimulated (AID 1146);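 note: PC12 cells with 6xCRE LacZ reporter stimulated by forskolin 10 µM; beta-galactosidase reporter signal reflecting CREB driven transcription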
SETTINGS: luminescence, 4.5 h, higher = more signal, called active from +8 up or from −8 down
Listing: z-score of selected molecules
OBSERVABLE: z-score

MOLECULE	OBSERVABLE	RESULT
COc1ccc(O[C@H]2C=C[C@@H](c3ccccc3)O[C@@H]2CON=C2c3cc(OC)ccc3O[C@H](c3cccc(OC)c3)[C@H]2O)cc1	z-score	0.411
O=C1C=C[C@@H](O)[C@@H]2[C@@H]3C(=O)N(Cc4ccc5c(c4)OCO5)C(=O)[C@@H]3CC[C@@H]12	z-score	-0.332
C[C@]12CCC3c4ccc(OCC5CO5)cc4CCC3C1CC[C@@H]2O (some centres not stated)	z-score	0.806
COC(=O)[C@H](C)NC(=O)CCC1CC(OC(=O)NCc2cccc3ccccc23)CC2(CCCC(COC(=O)NCCCN3CCCC3=O)O2)O1 (some centres not stated)	z-score	-0.178
O=C1C=C[C@@H](O)[C@@H]2[C@@H]3C(=O)N(Cc4ccccc4)C(=O)[C@@H]3CC[C@@H]12	z-score	-0.768
O=C1[C@H]2[C@H]3[C@H](O)[C@H](O)CC(=NO[C@@H]4O[C@H](CO)[C@@H](O)[C@H](O)[C@H]4O)[C@@H]3CC[C@H]2C(=O)N1c1cccc(Oc2ccccc2)c1	z-score	0.314
CO[C@H]1COC(=O)CCC[C@H](C)[C@@H](OC)COC(=O)CC=C[C@@H]1C	z-score	-0.24

###

TEST: basal RPMI8226 mitochondrial membrane potential changes, profiling panel, cell-based, JC-1 fluorescence, 24 h, 100 nL compound (AID 1169); note: test concentration not given here
SETTINGS: RPMI8226 myeloma, JC-1 mitochondrial potential fluorescence, higher = more signal
Kindly return yes if reported z-score is no lower than -0.07; return no if it is lower.

MOLECULE	ANSWER LABEL
COCC#Cc1ccc([C@@H]2N[C@H](C(=O)O)CC[C@H]2C)cc1	no
C[C@H]1CC[C@@H](C(=O)O)N[C@@H]1c1ccc(C#Cc2ccccc2)cc1	no
COC(=O)CC=C[C@@H](C)[C@@H](C=NOC(C)CN1CCCc2nc(C)c(C)cc21)NS(=O)(=O)c1ccc(C)cc1 (stereo partly specified)	yes
COC(=O)[C@H](C)NC(=O)CCC1CC(OC(=O)NCc2cccc3ccccc23)CC2(CCCC(COC(=O)NCCOc3ccccc3)O2)O1 (stereo partly specified)	no
C=CC[C@@H]1C=C[C@H](ON=C[C@@H](NS(=O)(=O)c2ccc(C)cc2)[C@H](C)C=CCC(=O)OC)[C@@H](CO)O1	yes
CC(C)(C)N1C(=O)[C@H]2[C@H]3[C@H](O)[C@H](O)CC(=NNC(=O)OCc4ccccc4)[C@H]3CC[C@H]2C1=O	no
CC(C)=CCCC(C)=CCON=C1[C@H]2CCn3c(=O)n(-c4ccccc4)c(=O)n3[C@H]2[C@H](O)[C@@H]2O[C@H]12	no
CCOC(=O)CCN1C(=O)[C@H]2[C@H]3[C@H](O)[C@H](O)CC(=NNC(=O)OCc4ccc(OC)cc4)[C@H]3CC[C@H]2C1=O	no
CCN1C(=O)[C@H]2[C@H]3[C@H](O)[C@H](O)CC(=NOCC(C)C)[C@H]3CC[C@H]2C1=O	yes
CCOC(=O)CCN1C(=O)[C@H]2[C@H]3[C@H](O)[C@H](O)CC(=O)[C@@H]3CC[C@H]2C1=O	no
CC(C)CON=C1C[C@@H](O)[C@@H](O)[C@@H]2[C@@H]3C(=O)N(Cc4ccccc4)C(=O)[C@@H]3CC[C@H]12	yes
COc1ccc(OC[C@H]2CN3[C@@H](CC[C@@H](C)[C@@H]3c3ccc(Br)cc3)C(=O)O2)cc1	yes
O=C1[C@H]2[C@H]3[C@H](O)[C@H](O)CC(=NO[C@@H]4O[C@H](CO)[C@@H](O)[C@H](O)[C@H]4O)[C@@H]3CC[C@H]2C(=O)N1C1CCCCC1	yes
CO[C@H]1COC(=O)CCC[C@H](C)[C@H](OC)COC(=O)CC=C[C@@H]1C	yes
COCOc1ccc(Br)cc1C(=O)C=Cc1ccc2c(c1)OCO2	no
CCN(CC)CC(O)CN1CCCCc2nc(C)c(C)cc21 (stereo unspecified)	yes
COC(=O)CC=C[C@@H](C)[C@@H](C=NOC(C)CN1CCCCc2nc(C)c(C)cc21)OC (stereo partly specified)	no
O=C1C[C@@H](O)[C@@H](O)[C@@H]2[C@@H]3C(=O)N(Cc4ccccc4)C(=O)[C@@H]3CC[C@H]12	yes
CC(C)CON=C1C[C@@H](O)[C@@H](O)[C@@H]2[C@@H]3C(=O)N(C(C)(C)C)C(=O)[C@@H]3CC[C@@H]12	no
CC(C)[C@@H](OCc1ccccc1)[C@H](C)C=NOC[C@@H](O)[C@H]1O[C@@H]2OC(C)(C)O[C@@H]2[C@H]1O	yes
COC(=O)CC=C[C@@H](C)[C@@H](C=NOC[C@@H](O)COCc1ccco1)NS(=O)(=O)c1ccc(C)cc1	no
COc1ccc(COC(=O)NN=C2C[C@@H](O)[C@@H](O)[C@@H]3[C@@H]4C(=O)N(C[C@@H]5CCCO5)C(=O)[C@@H]4CC[C@H]23)cc1	no
CO[C@H]1COC(=O)[C@H](C)COC(=O)[C@@H](OCc2ccccc2)C=C[C@@H]1C	no
CC(CCN1CCCc2nc(C)c(C)cc21)=NOC[C@@H](O)COCc1ccco1	yes
CCOC(=O)CCN1C(=O)[C@H]2[C@@H]3C(=CC[C@H]2C1=O)C(=O)[C@H]1O[C@H]1[C@H]3O	no
CCN1C(=O)[C@H]2[C@H]3[C@H](O)[C@H](O)CC(=NOC[C@@H](O)[C@H]4O[C@@H]5OC(C)(C)O[C@@H]5[C@H]4O)[C@@H]3CC[C@H]2C1=O	yes
CC(C)CON=C1C[C@@H](O)[C@@H](O)[C@@H]2[C@@H]3C(=O)N([C@@H](C)c4ccccc4)C(=O)[C@@H]3CC[C@@H]12	yes
C#CCCCON=C1[C@H]2CCn3c(=O)n(Cc4cc5c(cc4Cl)OCO5)c(=O)n3[C@H]2[C@H](O)[C@@H]2O[C@H]12	no
O=C(NN=C1C[C@@H](O)[C@@H](O)[C@@H]2[C@@H]3C(=O)N(Cc4ccccc4)C(=O)[C@@H]3CC[C@H]12)OCc1ccccc1	no
CCOC(=O)CCN1C(=O)[C@H]2[C@H]3[C@H](O)[C@H](O)CC(=NO[C@@H]4O[C@H](CO)[C@@H](O)[C@H](O)[C@H]4O)[C@H]3CC[C@H]2C1=O	no
